- target system: T1, 4H2697-bA
- T1 chain: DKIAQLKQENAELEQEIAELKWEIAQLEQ
- assay method text: two-hybrid library CCNG1;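 also: natural log of median RNA to DNA barcode read ratio; higher means stronger binding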
outcome measure: interaction score

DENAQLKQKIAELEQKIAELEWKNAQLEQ [4H1831-bA] : -1.55

[I] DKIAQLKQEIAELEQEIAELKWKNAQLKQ [4H2576-bA]
[II] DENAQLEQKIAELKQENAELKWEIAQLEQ [4H1369-bA]
Ask: Compare reported interaction score values for I and II . Which is lower? Identify your pick by its label.
Result: II
(II: -0.782, I: 0.599)
